Biological target: p38 MAP-kinase (Homo sapiens, UniProt Q16539)
Sequence (Q16539 whole entry): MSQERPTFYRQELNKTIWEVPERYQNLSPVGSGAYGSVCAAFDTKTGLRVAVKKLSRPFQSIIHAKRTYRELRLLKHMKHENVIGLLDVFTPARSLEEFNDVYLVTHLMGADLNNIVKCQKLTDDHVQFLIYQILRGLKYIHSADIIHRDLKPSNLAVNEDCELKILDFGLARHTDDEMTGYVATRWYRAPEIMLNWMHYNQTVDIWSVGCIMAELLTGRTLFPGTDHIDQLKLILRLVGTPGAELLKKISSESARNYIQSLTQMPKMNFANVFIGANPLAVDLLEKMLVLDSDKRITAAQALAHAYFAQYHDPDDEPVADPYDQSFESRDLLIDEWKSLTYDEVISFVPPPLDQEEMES
Assay: Enzymatic assay: inhibition of p38 MAP-kinase (phosphorylation of GST-tagged ATF2, chemoluminescence bead readout)
Assay type: biochemical
Conditions: inhibitor 1 μM; activated p38 MAP-kinase 1 nM; 4 h preincubation; ATP 100 μM; ATF2 10 nM; read-out: % inhibitory effect at 1 μM
recorded_metric: inhibition at 1 µM (%)
Your answer should be a plain number; it is taken to be in %.

Entry COc1c(NC(=O)c2ccc(C)c(Oc3ccnc(CN4CCN(C)CC4)n3)c2)cc(C(C)(C)C)cc1[S+](C)[O-] (stereo not shown) [13(1)] has what inhibition at 1 µM?
97

Next compound: COc1c(NC(=O)c2ccc(Cl)c(Oc3cc(NC4CCNCC4)ncn3)c2)cc(C(C)(C)C)cc1NS(C)(=O)=O [Example 11]
99.2

Next compound: COc1c(NC(=O)c2ccc(C)c(Oc3ccnc(CC4CCNCC4)n3)c2)cc(C(C)(C)C)cc1S(C)(=O)=O [5(38)]
98.8

Next compound: COc1c(NC(=O)c2ccc(Cl)c(Oc3ccnc(CN(C)CCN(C)C)c3)c2)cc(C(C)(C)C)cc1NS(C)(=O)=O [8(33)]
97.1

Next compound: CNc1cc(Oc2cc(C(=O)Nc3cc(C(C)(C)C)cc(NS(C)(=O)=O)c3OC)ccc2C)ncn1 [3(1)]
97

Next compound: COc1c(NC(=O)c2ccc(C)c(Oc3ccnc(CN4CCNCC4)c3)c2)cc(C(C)(C)C)cc1NS(C)(=O)=O [5(9)]
98.5

Next compound: COc1c(NC(=O)c2ccc(C)c(Oc3cc(NC4CCNC4)ncn3)c2)cc(C(C)(C)C)cc1NS(C)(=O)=O (stereo not shown) [5(26)]
97.6

* * *

Target: p38 MAP-kinase (Homo sapiens)
Assay: Enzymatic assay: inhibition of p38 MAP-kinase (phosphorylation of GST-tagged ATF2, chemoluminescence bead readout)
Assay type: biochemical
Settings: inhibitor 1 μM; activated p38 MAP-kinase 1 nM; 4 h preincubation; ATP 100 μM; ATF2 10 nM; read-out: % inhibitory effect at 1 μM
Please go through the items and note down their inhibition at 1 µM.
Your answer should be a plain number; it is taken to be in %.

Missing value: inhibition at 1 µM, p38 MAP-kinase (Homo sapiens), entry COc1c(NC(=O)c2ccc(Cl)c(Oc3cc(CN(C)CCN(C)C)ncn3)c2)cc(C(C)(C)C)cc1NS(C)(=O)=O . Fill in?
92.6

Next compound: COc1c(NC(=O)c2ccc(C)c(Oc3ccnc(CNC4CCCN(C)C4)n3)c2)cc(C(C)(C)C)cc1NS(C)(=O)=O (stereo not shown)
98.6

Next compound: COc1c(NC(=O)c2cc(C)cc(Oc3ccncc3)c2)cc(C(C)(C)C)cc1NS(C)(=O)=O
94.4

Next compound: COc1c(NC(=O)c2ccc(C)c(Oc3ccnc(CN4CCNCC4)n3)c2)cc(C(C)(C)C)cc1NS(C)(=O)=O
98.3

Next compound: COc1c(NC(=O)c2ccc(Cl)c(Oc3ccnc(CNCCN(C)C)c3)c2)cc(C(C)(C)C)cc1NS(C)(=O)=O
99.3

Next compound: COc1c(NC(=O)c2ccc(C)c(Oc3ccnc(CC4CCNCC4)n3)c2)cc(C(C)(C)C)cc1NS(C)(=O)=O
99.7

Next compound: COc1c(NC(=O)c2cc(C)cc(Oc3ccnc(C(=O)N4CCNCC4)n3)c2)cc(C(C)(C)C)cc1NS(C)(=O)=O
88.9

* * *

Please go through the items and note down their inhibition at 1 µM.
Biological target: p38 MAP-kinase (Homo sapiens, UniProt Q16539)
Test: Enzymatic assay: inhibition of p38 MAP-kinase (phosphorylation of GST-tagged ATF2, chemoluminescence bead readout)
Assay type: biochemical
Conditions: inhibitor 1 μM; activated p38 MAP-kinase 1 nM; 4 h preincubation; ATP 100 μM; ATF2 10 nM; read-out: % inhibitory effect at 1 μM
Your answer should be a plain number; it is taken to be in %.

Entry CNC(=O)c1cc(Oc2cc(C(=O)Nc3cc(C(C)(C)C)cc(NS(C)(=O)=O)c3OC)ccc2C)ncn1 has what inhibition at 1 µM?
95.6

Next molecule: COc1c(NC(=O)c2ccc(C)c(Oc3ccnc(N(C)C4CCNCC4)n3)c2)cc(C(C)(C)C)cc1NS(C)(=O)=O
98.5

Next molecule: COc1c(NC(=O)c2ccc(C)c(Oc3cc(NCCO)ncn3)c2)cc(C(C)(C)C)cc1NS(C)(=O)=O
96.8

Next molecule: CCCCC(=O)Nc1cc(C(C)(C)C)cc(NC(=O)c2ccc(C)c(Oc3ccnc(CC4CCNCC4)c3)c2)c1OC
95.4

Next molecule: COc1c(NC(=O)c2ccc(C)c(Oc3cc(N4CCC(N(C)C)CC4)ncn3)c2)cc(C(C)(C)C)cc1NS(C)(=O)=O
99.1

Next molecule: COc1c(NC(=O)c2ccc(Cl)c(Oc3ccnc(CN4CCCN(C)CC4)c3)c2)cc(C(C)(C)C)cc1NS(C)(=O)=O
98.9

Next molecule: COc1c(NC(=O)c2ccc(C)c(Oc3ccnc(NC4CCNC4)n3)c2)cc(C(C)(C)C)cc1NS(C)(=O)=O (stereo not shown)
98.3

* * *

Target: p38 MAP-kinase (Homo sapiens)
Experiment: Enzymatic assay: inhibition of p38 MAP-kinase (phosphorylation of GST-tagged ATF2, chemoluminescence bead readout)
Type: biochemical
Details: inhibitor 1 μM; activated p38 MAP-kinase 1 nM; 4 h preincubation; ATP 100 μM; ATF2 10 nM; read-out: % inhibitory effect at 1 μM
Procedure: In this, the amount of a substrate phosphorylated by the kinase is quantified. The test is carried out as follows: The kinase reaction is carried out in the presence of HEPES (20 mM, pH 7), MgCl2 (10 mM), DTT (1 mM) and TWEEN20 (0.01%). […] The concentration of phosphorylated ATF2 is quantified by chemoluminescence-induced light emission. […] When these beads come physically close, visible light is emitted which is measured in a photometer at 520-620 nm. […]
Please go through the items and note down their inhibition at 1 µM.
Your answer should be a plain number; it is taken to be in %.

Entry COc1c(NC(=O)c2ccc(Cl)c(Oc3ccnc(CC4CCN(C)CC4)c3)c2)cc(C(C)(C)C)cc1NS(C)(=O)=O has what inhibition at 1 µM?
99.5

Next compound: COc1c(NC(=O)c2ccc(C)c(Oc3ccnc(CNCCN(C)C)c3)c2)cc(C(C)(C)C)cc1NS(C)(=O)=O
98.4

Next compound: COc1c(NC(=O)c2ccc(C)c(Oc3ccnc(CC4CCNCC4)c3)c2)cc(C(F)(F)F)cc1NS(C)(=O)=O
99.2

Next compound: COc1c(NC(=O)c2ccc(Cl)c(Oc3ccnc(CN4CCCNCC4)c3)c2)cc(C(C)(C)C)cc1NS(C)(=O)=O
99.3

Next compound: CNCc1nccc(Oc2cc(C(=O)Nc3cc(C(C)(C)C)cc(NS(C)(=O)=O)c3OC)ccc2C)n1
66

Next compound: CCc1ccc(C(=O)Nc2cc(C(C)(C)C)cc(NS(C)(=O)=O)c2OC)cc1Oc1ccnc(N2CCNCC2)n1
96

Next compound: COc1c(NC(=O)c2ccc(C)c(Oc3ccnc(CN(C)CCN(C)C)c3)c2)cc(C(C)(C)C)cc1NS(C)(=O)=O
97.7

Next compound: COc1c(NC(=O)c2ccc(C)c(Oc3ccnc(CC4CCCNCC4)n3)c2)cc(C(C)(C)C)cc1NS(C)(=O)=O (stereo not drawn)
97

Next compound: COc1c(NC(=O)c2ccc(Br)c(Oc3ccnc(N4CCNCC4)n3)c2)cc(C(C)(C)C)cc1NS(C)(=O)=O
98.4

Next compound: CCOc1c(NC(=O)c2ccc(C)c(Oc3ccnc(CC4CCNCC4)c3)c2)cc(C(C)(C)C)cc1NS(C)(=O)=O
99.6

Next compound: COc1c(NC(=O)c2ccc(C)c(Oc3ccnc(CC4CCNCC4)c3)c2)cc(C(C)(C)C)cc1[S+](C)[O-] (stereo not drawn)
99.4

Next compound: COc1c(NC(=O)c2ccc(C)c(Oc3cc(CC4CCCNCC4)ncn3)c2)cc(C(C)(C)C)cc1NS(C)(=O)=O (stereo not drawn)
99.7

Next compound: COc1c(NC(=O)c2ccc(C)c(Oc3ccnc(CC4CCNCC4)c3)c2)cc(C(C)(C)C)cc1NC(=O)C(C)C
97.3

Next compound: COc1c(NC(=O)c2ccc(C)c(Oc3ccnc(CC4CCN(C)CC4)c3)c2)cc(C(C)(C)C)cc1NS(C)(=O)=O
98.5

Next compound: COc1c(NC(=O)c2ccc(C)c(Oc3ccnc(CN4CCNC(=O)C4)n3)c2)cc(C(C)(C)C)cc1NS(C)(=O)=O
95.8

* * *

Target: p38 MAP-kinase (Homo sapiens, UniProt Q16539)
Assay: Enzymatic assay: inhibition of p38 MAP-kinase (phosphorylation of GST-tagged ATF2, chemoluminescence bead readout)
Type: biochemical
Details: inhibitor 1 μM; activated p38 MAP-kinase 1 nM; 4 h preincubation; ATP 100 μM; ATF2 10 nM; read-out: % inhibitory effect at 1 μM
recorded_metric: inhibition at 1 µM (%)
Your answer should be a plain number; it is taken to be in %.

Missing value: inhibition at 1 µM, p38 MAP-kinase (Homo sapiens, UniProt Q16539), entry COc1c(NC(=O)c2ccc(C)c(Oc3ccnc(NCCN4CCCC4)n3)c2)cc(C(C)(C)C)cc1NS(C)(=O)=O . Fill in?
97.7

Next compound: COc1c(NC(=O)c2ccc(Cl)c(Oc3cc(CC4CCNCC4)ncn3)c2)cc(C(C)(C)C)cc1NS(C)(=O)=O
99.2

Next compound: COc1c(NC(=O)c2ccc(C)c(Oc3ccnc(CC4CCNCC4)c3)c2)cc(C(C)(C)C)cc1NS(=O)(=O)CC(C)C
99.6

Next compound: COc1c(NC(=O)c2ccc(C)c(Oc3ccnc(CC4CCCN(C)CC4)n3)c2)cc(C(C)(C)C)cc1NS(C)(=O)=O (stereo not shown)
99.6

Next compound: COc1c(NC(=O)c2ccc(C)c(Oc3cc(CN4CCOCC4)ncn3)c2)cc(C(C)(C)C)cc1NS(C)(=O)=O
95

Next compound: COc1c(NC(=O)c2ccc(Cl)c(Oc3ccnc(CN4CCN(C)CC4)c3)c2)cc(C(C)(C)C)cc1NS(C)(=O)=O
99.3

Next compound: COc1c(NC(=O)c2ccc(C)c(Oc3ccnc(CN(C)C4CCN(C)C4)n3)c2)cc(C(C)(C)C)cc1NS(C)(=O)=O (stereo not shown)
97

Next compound: COc1c(NC(=O)c2ccc(F)c(Oc3ccnc(N4CCNCC4)n3)c2)cc(C(C)(C)C)cc1NS(C)(=O)=O
94.6

Next compound: COc1c(NC(=O)c2ccc(C)c(Oc3ccnc(CN4CC[C@@H](N(C)C)C4)n3)c2)cc(C(C)(C)C)cc1NS(C)(=O)=O
98.3

Next compound: COc1c(NC(=O)c2ccc(Cl)c(Oc3ccnc(NC4CCN(C)CC4)c3)c2)cc(C(C)(C)C)cc1NS(C)(=O)=O
99.6

Next compound: COc1c(C[S+](C)[O-])cc(C(C)(C)C)cc1NC(=O)c1ccc(C)c(Oc2ccnc(CC3CCNCC3)c2)c1 (stereo not shown)
99.5

Next compound: COc1ccc(C(=O)Nc2cc(C(C)(C)C)cc(NS(C)(=O)=O)c2OC)cc1Oc1ccnc(N2CCNCC2)n1
98.9

Next compound: COc1c(NC(=O)c2ccc(C)c(Oc3ccnc(CN(C)CCN(C)C)n3)c2)cc(C(C)(C)C)cc1NS(C)(=O)=O
92.4

Next compound: COc1c(NC(=O)c2ccc(Cl)c(Oc3ccnc(CC4CCN(C)CC4)n3)c2)cc(C(C)(C)C)cc1NS(C)(=O)=O
99.6

Next compound: CCCCS(=O)(=O)Nc1cc(C(C)(C)C)cc(NC(=O)c2ccc(C)c(Oc3ccnc(CC4CCNCC4)c3)c2)c1OC
99.4

Next compound: COc1c(NC(=O)c2ccc(C)c(Oc3cc(CN4CCNC(=O)C4)ncn3)c2)cc(C(C)(C)C)cc1NS(C)(=O)=O
94.1

Next compound: COc1c(NC(=O)c2ccc(C)c(Oc3ccnc(CC4CCCNCC4)c3)c2)cc(C(C)(C)C)cc1NS(C)(=O)=O (stereo not shown)
99.5

Next compound: CNCc1cc(Oc2cc(C(=O)Nc3cc(C(C)(C)C)cc(NS(C)(=O)=O)c3OC)ccc2C)ccn1
91.1

Next compound: COc1c(NC(=O)c2ccc(C)c(Oc3cc(CC4CCN(C)CC4)ncn3)c2)cc(C(C)(C)C)cc1NS(C)(=O)=O
98.4

Next compound: COc1c(NC(=O)c2ccc(C)c(Oc3cc(N4CC[C@H](N(C)C)C4)ncn3)c2)cc(C(C)(C)C)cc1NS(C)(=O)=O
96.3

Next compound: COc1c(NC(=O)c2ccc(Cl)c(Oc3ccnc(CN4CCCN(C)CC4)n3)c2)cc(C(C)(C)C)cc1NS(C)(=O)=O
98.6

Next compound: COc1c(NC(=O)c2ccc(C)c(Oc3ccnc(CC4CCCN(C)CC4)c3)c2)cc(C(C)(C)C)cc1NS(C)(=O)=O (stereo not shown)
97.5

Next compound: COc1c(NC(=O)c2ccc(C)c(Oc3ccnc(CN4CCCNCC4)c3)c2)cc(C(C)(C)C)cc1S(C)(=O)=O
99.4

Next compound: CNc1nccc(Oc2cc(C(=O)Nc3cc(C(C)(C)C)cc(NS(C)(=O)=O)c3OC)ccc2C)n1
98.1

Next compound: COc1c(NC(=O)c2ccc(C)c(Oc3cc(N4CCNC(=O)C4)ncn3)c2)cc(C(C)(C)C)cc1NS(C)(=O)=O
96.3

Next compound: COc1c(NC(=O)c2ccc(C)c(Oc3ccnc(N[C@H]4CC[C@H](N(C)C)CC4)n3)c2)cc(C(C)(C)C)cc1NS(C)(=O)=O
99

Next compound: COc1c(NC(=O)c2ccc(C)c(Oc3cc(CNCCN(C)C)ncn3)c2)cc(C(C)(C)C)cc1NS(C)(=O)=O
89

Next compound: COc1c(NC(=O)c2ccc(Cl)c(Oc3cc(CN4CCCN(C)CC4)ncn3)c2)cc(C(C)(C)C)cc1NS(C)(=O)=O
98.8
